# kon per entry
Target: T1, human VEGF-A residues 27-191 of Accession #AAV38412 (human, UniProt P15692 27-191)
T1 construct: range 27-191
T1 sequence (P15692 other isoform, or with tags, fused parts or gaps limits assumed): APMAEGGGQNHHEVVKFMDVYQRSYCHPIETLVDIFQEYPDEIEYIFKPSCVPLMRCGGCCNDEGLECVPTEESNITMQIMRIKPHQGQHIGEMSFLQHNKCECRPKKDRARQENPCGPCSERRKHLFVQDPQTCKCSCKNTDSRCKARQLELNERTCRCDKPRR
Test: BIAcore SPR
# value in M⁻¹ s⁻¹; strip the unit string

Some solved cases for reference:
>>> recorded_number("T30 K (anti-VEGF IgG) (antibody, V domains shown, copies: 2 + 2) VH: EVQLVESGGGLVQPGGSLRLSCAASGYTFKNYGMNWVRQAPGKGLEWVGWINTYTGEPTYAADFKRRFTFSLDTSKSTAYLQMNSLRAEDTAVYYCAKYPHYYGSSHWYFDVWGQGTLVTVSS VL: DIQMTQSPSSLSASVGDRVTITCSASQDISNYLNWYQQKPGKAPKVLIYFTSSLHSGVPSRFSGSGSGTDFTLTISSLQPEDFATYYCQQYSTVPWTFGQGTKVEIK")
92800
>>> recorded_number("T30 R (anti-VEGF IgG) (antibody, V domains shown, copies: 2 + 2) VH: EVQLVESGGGLVQPGGSLRLSCAASGYTFRNYGMNWVRQAPGKGLEWVGWINTYTGEPTYAADFKRRFTFSLDTSKSTAYLQMNSLRAEDTAVYYCAKYPHYYGSSHWYFDVWGQGTLVTVSS VL: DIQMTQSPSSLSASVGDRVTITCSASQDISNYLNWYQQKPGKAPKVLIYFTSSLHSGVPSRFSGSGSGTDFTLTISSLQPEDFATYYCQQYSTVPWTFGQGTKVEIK")
105000

# input for lookup
Qu. May I ask what kon has been recorded for S100a T (anti-VEGF IgG) (antibody, V domains shown, copies: 2 + 2) VH: EVQLVESGGGLVQPGGSLRLSCAASGYTFTNYGMNWVRQAPGKGLEWVGWINTYTGEPTYAADFKRRFTFSLDTSKSTAYLQMNSLRAEDTAVYYCAKYPHYYGTSHWYFDVWGQGTLVTVSS VL: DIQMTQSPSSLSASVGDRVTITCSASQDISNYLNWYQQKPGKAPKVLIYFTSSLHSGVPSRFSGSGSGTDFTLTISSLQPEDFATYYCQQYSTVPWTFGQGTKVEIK ?
Ans. 211000
